// provenance: patent US20210330611A1

Quick reference: inhibition at 10 µM of the listed items.
- Tested on: fibrin-induced microglia activation
- experiment-notes: Image-based assay of fibrin-induced microglia activation (HTS and dose response)
- Assay type: cell-based, rat
- condition-summary: Rattus norvegicus, Microglia, primary microglia HTS, fibrin stimulation, cell size >800 μm2 as marker of activation; read-out: Fibrin % inhibition
Could you kindly put the unit after your number?

Solved entries (count: 3):
N[C@@H](CC(=O)N1CCn2c(nnc2C(F)(F)F)C1)Cc1cc(F)c(F)cc1F    -16%
N[C@@H](COP(=O)(O)O)C(=O)O    -6%
C=CC[N+]1([C@H]2C[C@H]3[C@@H]4CC[C@H]5C[C@H](O)[C@@H](N6CCOCC6)C[C@]5(C)[C@H]4CC[C@]3(C)[C@H]2OC(C)=O)CCCC1    -22%

Now, please, on to the next molecule.
(Q) So what does the record say about inhibition at 10 µM for CC(C)(S)[C@@H](N)C(=O)O ?
(A) -15%

---

- Tested on: fibrin-induced microglia activation
- experiment-notes: Image-based assay of fibrin-induced microglia activation (HTS and dose response)
- Format: cell-based, rat
- condition-summary: primary microglia HTS, fibrin stimulation, compounds at 10 μM
readout-type: Fibrin % inhibition (%)
Please state the figure in %; there is no need to write the unit.

CC1(C)C2CCC1(CS(=O)(=O)O)C(=O)C2=Cc1ccc(C=C2C(=O)C3(CS(=O)(=O)O)CCC2C3(C)C)cc1    20
CC(N)C(=O)OC(C)(C)Cc1ccc(Cl)cc1.Cl (centres unmarked) [Alaproclate Hydrochloride, Alaproclate]    −7
CN[C@@H](C)[C@H](O)c1ccccc1.Cl [Ephedrine (1r,2s) Hydrochloride]    −26
C[C@H]1O[C@@H](n2cc(F)c(=O)[nH]c2=O)[C@H](O)[C@@H]1O    −27
Nc1ccc([As](=O)(O)O)cc1    −42

(Q) So what does the record say about Fibrin % inhibition for CCOP(=S)(OCC)Oc1ccc2c(C)c(Cl)c(=O)oc2c1 ?
(A) −12

(Q) Record: O.OC[C@@H](O)[C@@H](O[C@@H]1O[C@H](CO)[C@H](O)[C@H](O)[C@H]1O)[C@H](O)[C@@H](O)CO [D-lactitol Monohydrate]
(A) 11

(Q) Record: CCCCC(O)c1ccccc1 (centres unmarked)
(A) −1

---

- Tested on: primary rat microglia
- condition-summary: rat
Where a name gives a salt, the structure may show the parent alone.
readout-type: LPS % cell toxicity (%)
Please state the figure in %; there is no need to write the unit.

Solved entries (count: 2):
CC[C@@H](CO)NCCN[C@@H](CC)CO    1
Cc1cn(-c2cc(NC(=O)c3ccc(C)c(Nc4nccc(-c5cccnc5)n4)c3)cc(C(F)(F)F)c2)cn1    1

(Q) Kindly state the measured LPS % cell toxicity obtained for CC(C)(Oc1ccc(C2CC2(Cl)Cl)cc1)C(=O)O (centres unmarked) [Ciprofibrate] with primary rat microglia.
(A) 1

(Q) Record: CN[C@H](CC(C)C)C(=O)N[C@H]1C(=O)N[C@@H](CC(N)=O)C(=O)N[C@H]2C(=O)N[C@H]3C(=O)N[C@H](C(=O)N[C@H](C(=O)O)c4cc(O)cc(O)c4-c4cc3ccc4O)[C@H](O)c3ccc(c(Cl)c3)Oc3cc2cc(c3O[C@@H]2O[C@H](CO)[C@@H](O)[C@H](O)[C@H]2O[C@H]2C[C@](C)(N)[C@H](O)[C@H](C)O2)Oc2ccc(cc2Cl)[C@H]1O [Vancomycin Hydrochloride]
(A) 0

---

- System: primary rat microglia
- experiment-notes: Cell toxicity (dead cells, size <150 μm2) in coated fibrin (cFib) assay;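 further: share of dead cells sized under 150 µm2 at 10 µM in fibrin-stimulated microglia HTS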
- condition-summary: primary microglia HTS, fibrin stimulation, toxicity = cell size <150 μm2
Where a name gives a salt, the structure may show the parent alone.
Quick reference: Fibrin % cell toxicity of the listed items.
Please state the figure in %; there is no need to write the unit.

O=C1OC2(c3ccc(O)cc3Oc3cc(O)ccc32)c2ccccc21    0

(Q) So what does the record say about Fibrin % cell toxicity for COc1ccc(CN2CCN(C(c3ccc(F)cc3)c3ccc(F)cc3)CC2)c(OC)c1OC [Lomerizine, Lomerizine Dihydrochloride] ?
(A) 1

(Q) Record: O=C(O)c1ccc(S(=O)(=O)N(Cl)Cl)cc1
(A) 0

(Q) Record: Cc1c(OCC(F)(F)F)ccnc1C[S+]([O-])c1nc2ccccc2[nH]1 (stereo not drawn)
(A) 0

---

- System: fibrin-induced microglia activation
- experiment-notes: Image-based assay of fibrin-induced microglia activation (HTS and dose response)
- Format: cell-based, rat
- condition-summary: Rattus norvegicus, Microglia, primary microglia HTS, fibrin stimulation, activation = cell size >800 μm2; read-out: Fibrin % inhibition
Structures can show the parent of a compound that is named as a salt.
Mark N for inhibition at 10 µM values under -20%, and Y for everything at or above.

N[C@H]1CONC1=O [Levcycloserine]    Y
CC(=O)N(CC(O)CO)c1c(I)c(C(=O)NCCO)c(I)c(C(=O)NCC(O)CO)c1I (stereo not shown) [Ioxilan]    Y
C[N+](C)(C)C[C@H](O)CC(=O)[O-] [Levocarnitine]    Y
CC1(C)OC(=O)C(OCC2CC2)=C1c1ccc(S(C)(=O)=O)cc1 [Firocoxib]    Y
N#Cc1nn(-c2c(Cl)cc(C(F)(F)F)cc2Cl)c(N)c1[S+]([O-])C(F)(F)F (stereo not shown) [Fipronil]    Y

(Q) Check if inhibition at 10 µM >= -20% (inclusive). Item: CN1CCc2cc3c(cc2C1O)OCO3 (stereo not shown) [Hydrastinine Hydrochloride]
(A) Y

(Q) Record: CCC(=O)O[C@H](CC(=O)O)C[N+](C)(C)C [Levocarnitine Propionate Hydrochloride]
(A) Y

(Q) Record: O=C(O)c1cc(O)c(O)c(O)c1 [Gallic Acid]
(A) N

(Q) Record: N=C(N)NCC1COC2(CCCCC2)O1 (stereo not shown) [Guanadrel]
(A) Y

(Q) Record: CO/N=C1\CN(c2nc3c(cc2F)c(=O)c(C(=O)O)cn3C2CC2)CC1CN (stereo not shown) [Gemifloxacin]
(A) N

(Q) Record: CC(C)[N+](C)(CCC(C(N)=O)(c1ccccc1)c1ccccc1)C(C)C [Isopropamide]
(A) Y

(Q) Record: CC#CCC(C)[C@H](O)/C=C/[C@@H]1[C@H]2C/C(=C/CCCC(=O)O)C[C@H]2C[C@H]1O (stereo partly shown) [Iloprost]
(A) Y

(Q) Record: CC#CCn1c(N2CCC[C@@H](N)C2)nc2c1c(=O)n(Cc1nc(C)c3ccccc3n1)c(=O)n2C [Linagliptin]
(A) Y

(Q) Record: C[N+]1(C)[C@@H]2CC[C@H]1C[C@@H](OC(=O)C(O)c1ccccc1)C2 (stereo partly shown) [Homatropine Methylbromide]
(A) Y

(Q) Record: O=C(NCC1CCCCN1)c1cc(OCC(F)(F)F)ccc1OCC(F)(F)F (stereo not shown) [Flecainide]
(A) N

(Q) Record: C#C[C@]1(O)CC[C@H]2[C@@H]3CCC4=CC(=O)CC[C@@H]4[C@H]3CC[C@@]21CC [Levonorgestrel]
(A) Y

---

- System: primary rat microglia
- experiment-notes: Cell toxicity (dead cells, size <150 μm2) in coated fibrin (cFib) assay;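 further: share of dead cells sized under 150 µm2 at 10 µM in fibrin-stimulated microglia HTS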
- condition-summary: primary microglia HTS, fibrin stimulation; decreased size (<150 μm^2) as marker of toxicity
Counter-ions that a name gives are not always drawn.
Quick reference: Fibrin % cell toxicity of the listed items.
Please state the figure in %; there is no need to write the unit.

Clc1ccc(C(OCCN2CCCCC2)c2ccccc2)cc1 (centres unmarked) [Cloperastine hydrochloride, reference compound]    2
c1ccc2c(c1)OCC(C1=NCCN1)O2 (centres unmarked) [Idazoxan hydrochloride, reference compound]    2
Cc1ccsc1/C=C/C1=NCCCN1C [Morantel Citrate]    1
COC(=O)Nc1nc2ccc(Sc3ccccc3)cc2[nH]1 [Fenbendazole, reference compound]    1
C#C[C@]1(OC(C)=O)CC[C@H]2[C@@H]3CCC4=CC(=O)CC[C@@H]4[C@H]3CC[C@@]21C [Norethindrone Acetate]    1

(Q) So what does the record say about Fibrin % cell toxicity for CCOc1ccc2ccccc2c1C(=O)N[C@@H]1C(=O)N2[C@@H]1SC(C)(C)[C@@H]2C(=O)O [Nafcillin Sodium] ?
(A) 0

(Q) Record: CC(C)(CO)C(O)C(=O)NCCCO (centres unmarked)
(A) 1

(Q) Record: COc1c(C)c2c(c(O)c1C/C=C(\C)CCC(=O)O)C(=O)OC2 [Mycophenolic acid, reference compound]
(A) 1

---

- Tested on: primary rat microglia
- experiment-notes: Cell toxicity (dead cells, size <150 μm2) in coated fibrin (cFib) assay;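 further: share of dead cells sized under 150 µm2 at 10 µM in fibrin-stimulated microglia HTS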
- condition-summary: primary microglia HTS, fibrin stimulation; decreased size (<150 μm^2) as marker of toxicity
Quick reference: Fibrin % cell toxicity of the listed items.
Please state the figure in %; there is no need to write the unit.

(Q) So what does the record say about Fibrin % cell toxicity for CCn1nc(C(=O)O)c(=O)c2cc3c(cc21)OCO3 ?
(A) 50

(Q) Record: Cc1cc(=O)[nH]c(=S)[nH]1
(A) 0

(Q) Record: NCc1ccc(S(N)(=O)=O)cc1 [Mafenide]
(A) 1

(Q) Record: CCCCCCc1ccc(O)cc1O.Nc1c2ccccc2nc2ccccc12 [Acrisorcin, reference compound]
(A) 2
